Reported IC50 against Cholecystokinin receptor type A (Rattus norvegicus), gathered from multiple publications, appears below.
Sequence (P30551 whole entry): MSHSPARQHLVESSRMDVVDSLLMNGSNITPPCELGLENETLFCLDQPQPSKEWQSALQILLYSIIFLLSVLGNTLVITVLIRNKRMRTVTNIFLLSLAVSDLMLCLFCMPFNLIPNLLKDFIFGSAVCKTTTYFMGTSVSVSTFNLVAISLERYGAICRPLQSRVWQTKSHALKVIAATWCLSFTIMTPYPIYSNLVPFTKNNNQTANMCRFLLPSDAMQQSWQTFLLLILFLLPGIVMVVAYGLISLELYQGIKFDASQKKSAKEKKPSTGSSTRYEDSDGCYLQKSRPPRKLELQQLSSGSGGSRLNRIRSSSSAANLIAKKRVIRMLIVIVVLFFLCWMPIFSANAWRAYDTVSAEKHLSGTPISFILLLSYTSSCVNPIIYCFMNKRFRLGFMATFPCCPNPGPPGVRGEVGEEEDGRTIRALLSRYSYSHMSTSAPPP
endpoint: IC50 (nM)

I. CC(C)Oc1cccc(-n2c(CNC(=O)Nc3ccc([N+](=O)[O-])cc3)nc3ccccc3c2=O)c1
II. Cc1cccc(NC(=O)NNc2nc3ccccc3c(=O)n2-c2cccc(N)c2)c1
III. CC(C)Oc1cccc(-n2c(NNC(=O)NC3CCCCC3)nc3ccccc3c2=O)c1
IV. CN(C)c1cccc(N2C(=O)C[C@H]3[C@H](NC(=O)[C@H](Cc4c[nH]c5ccccc45)NC(=O)OC(C)(C)C)CCCN3C2=O)c1
input: Rank by decreasing IC50 the items listed here. To answer, arrange all of the labels according to the requested order.
output: III, I, II, IV
